Tested on: HeLa
ASSAY_EXPLANATION: Cytotoxicity against human HeLa cells after 48 hrs by MTT assay
Type: functional, cell-based
pIC50: −log10 of the molar value.
Lab note: anything with pIC50 at or over 5 counts as yes; the rest go in no.

Previously resolved entries follow.
O=c1oc2cc(OCCN3CCCC3)ccc2c(-c2ccccc2)c1-c1ccc(OCCN2CCCC2)cc1 :: yes
CCN(CC)CCOc1ccc(-c2c(-c3ccc(OCCN(CC)CC)cc3)c3ccccc3oc2=O)cc1 :: no
O=c1oc2ccccc2c(-c2ccc(OCCN3CCCCC3)cc2)c1-c1ccc(OCCN2CCCCC2)cc1 :: yes
O=c1oc2cc(OCCN3CCCCC3)ccc2c(-c2ccccc2)c1-c1ccc(OCCN2CCCCC2)cc1 :: yes
O=c1oc2ccccc2c(-c2ccc(OCCN3CCOCC3)cc2)c1-c1ccc(OCCN2CCOCC2)cc1 :: no

Would you kindly look at the next entry?
pIC50 >= 5 for `O=c1oc2cc(OCCN3CCOCC3)ccc2c(-c2ccccc2)c1-c1ccc(OCCN2CCOCC2)cc1` ?
no

====

ASSAY_EXPLANATION: Cytotoxicity against mouse skull osteoblasts at 1 uM after 48 hrs by MTT assay relative to control
Assay type: cell-based
MEASUREMENT_PARAMETERS: osteoblast
Listed below: Activity values for each entry.
Your answer is read as %, so omit the unit and give the number.

O=c1oc2ccccc2c(-c2ccc(OCCN3CCCCC3)cc2)c1-c1ccc(OCCN2CCCCC2)cc1 :: -3.2

Name the recorded Activity for `CN(C)CCOc1ccc(-c2c(-c3ccccc3)c3ccc(OCCN(C)C)cc3oc2=O)cc1` .
-0.6

Now give it for `O=c1oc2ccccc2c(-c2ccc(OCCN3CCCC3)cc2)c1-c1ccc(OCCN2CCCC2)cc1` too.
0.1

====

ASSAY_EXPLANATION: Cytotoxicity against mouse skull osteoblasts at 100 uM after 48 hrs by MTT assay relative to control
Format: cell-based
MEASUREMENT_PARAMETERS: osteoblast
RECORDED_METRIC: Activity (%)
Your answer is read as %, so omit the unit and give the number.

# example entries with known answers
O=c1oc2cc(OCCN3CCCCC3)ccc2c(-c2ccccc2)c1-c1ccc(OCCN2CCCCC2)cc1 :: 33.4
CN1CCN(CCOc2ccc(-c3c(-c4ccccc4)c4ccc(OCCN5CCN(C)CC5)cc4oc3=O)cc2)CC1 :: 31.6
CN(C)CCOc1ccc(-c2c(-c3ccccc3)c3ccc(OCCN(C)C)cc3oc2=O)cc1 :: 31.5
CCN(CC)CCOc1ccc(-c2c(-c3ccccc3)c3ccc(OCCN(CC)CC)cc3oc2=O)cc1 :: 31.7
O=c1oc2ccccc2c(-c2ccc(OCCN3CCCC3)cc2)c1-c1ccc(OCCN2CCCC2)cc1 :: 39.5
O=c1oc2ccccc2c(-c2ccc(OCCN3CCCCC3)cc2)c1-c1ccc(OCCN2CCCCC2)cc1 :: 40.3

// switching to the query compound
Name the recorded Activity for `O=c1oc2cc(OCCN3CCCC3)ccc2c(-c2ccccc2)c1-c1ccc(OCCN2CCCC2)cc1` .
32.8

====

Tested on: DNA
ASSAY_EXPLANATION: Binding affinity to calf thymus DNA assessed as melting temperature at 5 uM after 10 mins by thermal denaturation assay (reference value: 67 degC)
Format: nucleic-acid assay
MEASUREMENT_PARAMETERS: Bos taurus
RECORDED_METRIC: Tm (°C)
Your answer is read as °C, so omit the unit and give the number.

CN1CCN(CCOc2ccc(-c3c(-c4ccc(OCCN5CCN(C)CC5)cc4)c4ccccc4oc3=O)cc2)CC1 :: 71

Name the recorded Tm for `CCN(CC)CCOc1ccc(-c2c(-c3ccc(OCCN(CC)CC)cc3)c3ccccc3oc2=O)cc1` .
71.5

Now give it for `CCN(CC)CCOc1ccc(-c2c(-c3ccccc3)c3ccc(OCCN(CC)CC)cc3oc2=O)cc1` too.
68.8

Now give it for `CN1CCN(CCOc2ccc(-c3c(-c4ccccc4)c4ccc(OCCN5CCN(C)CC5)cc4oc3=O)cc2)CC1` too.
69.2

Now give it for `O=c1oc2cc(OCCN3CCCCC3)ccc2c(-c2ccccc2)c1-c1ccc(OCCN2CCCCC2)cc1` too.
68.2

Now give it for `O=c1oc2ccccc2c(-c2ccc(OCCN3CCCCC3)cc2)c1-c1ccc(OCCN2CCCCC2)cc1` too.
70

====

System: A549
ASSAY_EXPLANATION: Cytotoxicity against human A549 cells after 48 hrs by MTT assay
Type: functional, cell-based
MEASUREMENT_PARAMETERS: A549, 48 h
Listed below: IC50 values for each entry.
Your answer is read as µM, so omit the unit and give the number.

O=c1oc2cc(OCCN3CCCC3)ccc2c(-c2ccccc2)c1-c1ccc(OCCN2CCCC2)cc1 :: 7.35
CN1CCN(CCOc2ccc(-c3c(-c4ccc(OCCN5CCN(C)CC5)cc4)c4ccccc4oc3=O)cc2)CC1 :: 55.6
O=c1oc2ccccc2c(-c2ccc(OCCN3CCCCC3)cc2)c1-c1ccc(OCCN2CCCCC2)cc1 :: 7.28
O=c1oc2ccccc2c(-c2ccc(OCCN3CCCC3)cc2)c1-c1ccc(OCCN2CCCC2)cc1 :: 8.79
CCN(CC)CCOc1ccc(-c2c(-c3ccc(OCCN(CC)CC)cc3)c3ccccc3oc2=O)cc1 :: 46.3

// switching to the query compound
Name the recorded IC50 for `CN(C)CCOc1ccc(-c2c(-c3ccccc3)c3ccc(OCCN(C)C)cc3oc2=O)cc1` .
9.13

====

Test system: DNA
ASSAY_EXPLANATION: Binding affinity to calf thymus DNA assessed as hyperchromicity at 10 uM after 10 mins by UV-vis spectrophotometric analysis
Format: nucleic-acid assay
MEASUREMENT_PARAMETERS: Bos taurus
RECORDED_METRIC: Activity (%)
Your answer is read as %, so omit the unit and give the number.

CCN(CC)CCOc1ccc(-c2c(-c3ccccc3)c3ccc(OCCN(CC)CC)cc3oc2=O)cc1 :: 8
O=c1oc2cc(OCCN3CCCCC3)ccc2c(-c2ccccc2)c1-c1ccc(OCCN2CCCCC2)cc1 :: 6
CN1CCN(CCOc2ccc(-c3c(-c4ccc(OCCN5CCN(C)CC5)cc4)c4ccccc4oc3=O)cc2)CC1 :: 17
O=c1oc2ccccc2c(-c2ccc(OCCN3CCCCC3)cc2)c1-c1ccc(OCCN2CCCCC2)cc1 :: 16
CCN(CC)CCOc1ccc(-c2c(-c3ccc(OCCN(CC)CC)cc3)c3ccccc3oc2=O)cc1 :: 17

// switching to the query compound
Name the recorded Activity for `CN1CCN(CCOc2ccc(-c3c(-c4ccccc4)c4ccc(OCCN5CCN(C)CC5)cc4oc3=O)cc2)CC1` .
8

====

Tested on: A549
ASSAY_EXPLANATION: Cytotoxicity against human A549 cells after 48 hrs by MTT assay
Format: functional, cell-based
MEASUREMENT_PARAMETERS: A549, 48 h
RECORDED_METRIC: pIC50
Scale note: pIC50 = -log10(concentration in M).

CCN(CC)CCOc1ccc(-c2c(-c3ccccc3)c3ccc(OCCN(CC)CC)cc3oc2=O)cc1 :: 5.05

Name the recorded pIC50 for `CN1CCN(CCOc2ccc(-c3c(-c4ccccc4)c4ccc(OCCN5CCN(C)CC5)cc4oc3=O)cc2)CC1` .
5.33

Now give it for `O=c1oc2cc(OCCN3CCCCC3)ccc2c(-c2ccccc2)c1-c1ccc(OCCN2CCCCC2)cc1` too.
5.28

====

System: DNA
ASSAY_EXPLANATION: Binding affinity to calf thymus DNA after 10 mins by Stern-Volmer plot analysis
Format: nucleic-acid assay
MEASUREMENT_PARAMETERS: Bos taurus
Listed below: Kb values for each entry.

# example entries with known answers
CN1CCN(CCOc2ccc(-c3c(-c4ccc(OCCN5CCN(C)CC5)cc4)c4ccccc4oc3=O)cc2)CC1 :: 1.4 ×10⁴ /M
O=c1oc2cc(OCCN3CCCCC3)ccc2c(-c2ccccc2)c1-c1ccc(OCCN2CCCCC2)cc1 :: 7 ×10³ /M
CCN(CC)CCOc1ccc(-c2c(-c3ccccc3)c3ccc(OCCN(CC)CC)cc3oc2=O)cc1 :: 6 ×10³ /M
CN1CCN(CCOc2ccc(-c3c(-c4ccccc4)c4ccc(OCCN5CCN(C)CC5)cc4oc3=O)cc2)CC1 :: 5.2 ×10³ /M
CCN(CC)CCOc1ccc(-c2c(-c3ccc(OCCN(CC)CC)cc3)c3ccccc3oc2=O)cc1 :: 1 ×10⁴ /M

Name the recorded Kb for `O=c1oc2ccccc2c(-c2ccc(OCCN3CCCCC3)cc2)c1-c1ccc(OCCN2CCCCC2)cc1` .
1.2 ×10⁴ /M

====

Listed below: ΔTm values for each entry.
System: DNA
ASSAY_EXPLANATION: Binding affinity to calf thymus DNA assessed as change in melting temperature at 5 uM after 10 mins by thermal denaturation assay
Format: nucleic-acid assay
MEASUREMENT_PARAMETERS: Bos taurus
Your answer is read as °C, so omit the unit and give the number.

O=c1oc2cc(OCCN3CCCCC3)ccc2c(-c2ccccc2)c1-c1ccc(OCCN2CCCCC2)cc1 :: 1.2
CCN(CC)CCOc1ccc(-c2c(-c3ccccc3)c3ccc(OCCN(CC)CC)cc3oc2=O)cc1 :: 1.7
O=c1oc2ccccc2c(-c2ccc(OCCN3CCCCC3)cc2)c1-c1ccc(OCCN2CCCCC2)cc1 :: 3

// switching to the query molecule
Name the recorded ΔTm for `CN1CCN(CCOc2ccc(-c3c(-c4ccc(OCCN5CCN(C)CC5)cc4)c4ccccc4oc3=O)cc2)CC1` .
4
